This collection of values is drawn from ChEMBL document CHEMBL4425094.

# Tested on: MDA-MB-231
# Assay Protocol: Cytotoxicity against human MDA-MB-231 cells assessed as cell growth inhibition after 24 hrs by MTT assay
# Assay type: functional, cell-based
# Test Parameters: MDA-MB-231, 24 h
Give IC50 for every item shown.

# input For the record O[C@]1(c2ccccc2)C[C@@H](c2ccccc2)N2CCc3cc(OCc4ccccc4)c(OCc4ccccc4)cc3[C@@H]2C1 , what value of IC50 is listed for MDA-MB-231?
# output > 20 µM

# input For the record C[C@@H]1CC(=O)C[C@H]2c3cc(OCc4cc(C(F)(F)F)cc(C(F)(F)F)c4)c(OCc4cc(C(F)(F)F)cc(C(F)(F)F)c4)cc3CCN12 (relative stereo) , what value of IC50 is listed for MDA-MB-231?
# output > 20 µM

# input For the record COc1ccc([C@@H]2C[C@H](O)C[C@H]3c4cc(OCc5cc(C)cc(C)c5)c(OCc5cc(C)cc(C)c5)cc4CCN23)cc1OC , what value of IC50 is listed for MDA-MB-231?
# output > 20 µM

###

# Tested on: DU-145
# Assay Protocol: Cytotoxicity against human DU145 cells assessed as cell growth inhibition after 24 hrs by MTT assay
# Type: functional, cell-based
# Test Parameters: DU-145, 24 h
Give IC50 for every item shown.

# input If you can, please state the reported IC50 value of Cc1cc(C)cc(COc2cc3c(cc2OCc2cc(C)cc(C)c2)CN(C(=O)OC(C)(C)C)CC3)c1 .
# output > 20 µM

# input If you can, please state the reported IC50 value of O[C@@H]1C[C@@H](c2ccccc2)N2CCc3ccc(OCc4ccccc4)cc3[C@@H]2C1 .
# output > 20 µM

# input If you can, please state the reported IC50 value of CCCCCCCCCCCCCCCCOc1cc2c(cc1OCCCCCCCCCCCCCCCC)[C@@H]1CC(=O)C[C@@H](C)N1CC2 .
# output > 20 µM

# input If you can, please state the reported IC50 value of C[C@@H]1CC(=O)C[C@H]2c3cc4c(cc3CCN12)OCO4 (relative stereo) .
# output > 20 µM

# input If you can, please state the reported IC50 value of COc1ccc([C@@H]2C[C@H](O)C[C@H]3c4cc(OCc5ccccc5)c(OCc5ccccc5)cc4CCN23)cc1 .
# output > 20 µM

# input If you can, please state the reported IC50 value of CCCCCCCCCCCCCCCCOc1cc2c(cc1OCCCCCCCCCCCCCCCC)[C@@H]1C[C@@H](O)C[C@@H](C)N1CC2 .
# output > 20 µM

# input If you can, please state the reported IC50 value of O[C@H]1C[C@@H](c2ccc(-c3ccccc3)cc2)N2CCc3cc(OCc4ccccc4)c(OCc4ccccc4)cc3[C@@H]2C1 .
# output > 20 µM

# input If you can, please state the reported IC50 value of CCC[C@@H]1CC(=O)C[C@H]2c3cc(OCc4ccccc4)c(OCc4ccccc4)cc3CCN12 (relative stereo) .
# output > 20 µM

# input If you can, please state the reported IC50 value of COc1ccc([C@@H]2C[C@@H](O)C[C@H]3c4cc(OCc5cc(C)cc(C)c5)c(OCc5cc(C)cc(C)c5)cc4CCN23)cc1OC .
# output 4.53 µM

# input If you can, please state the reported IC50 value of C[C@@]1(O)C[C@@H](c2ccccc2)N2CCc3cc(OCc4ccccc4)c(OCc4ccccc4)cc3[C@@H]2C1 .
# output 11.6 µM

# input If you can, please state the reported IC50 value of C[C@@H]1C[C@@H](O)C[C@H]2c3cc(OCc4ccc(Br)cc4)c(OCc4ccc(Br)cc4)cc3CCN12 .
# output 2.58 µM

# input If you can, please state the reported IC50 value of COc1cc([C@@H]2C[C@@H](O)C[C@H]3c4cc(OCc5ccccc5)c(OCc5ccccc5)cc4CCN23)cc(OC)c1OC .
# output > 20 µM

###

# Tested on: PC-3
# Assay Protocol: Cytotoxicity against human PC3 cells assessed as cell growth inhibition after 24 hrs by MTT assay
# Type: functional, cell-based
# Test Parameters: PC-3, 24 h
Give pIC50 for every item shown.
# log scale: pIC50 equals minus log10 of the concentration in mol/L

# input If you can, please state the reported pIC50 value of CC[C@@H]1C[C@@H](O)C[C@H]2c3cc(OCc4ccccc4)c(OCc4ccccc4)cc3CCN12 .
# output 5.67

# input If you can, please state the reported pIC50 value of C[C@@H]1C[C@@H](O)C[C@H]2c3cc(OCc4cccc(F)c4)c(OCc4cccc(F)c4)cc3CCN12 .
# output 6.09

# input If you can, please state the reported pIC50 value of COc1ccc([C@@H]2C[C@@H](O)C[C@H]3c4cc(OCc5ccccc5)c(OCc5ccccc5)cc4CCN23)cc1OC .
# output 5.82

# input If you can, please state the reported pIC50 value of C[C@@H]1C[C@H](O)C[C@H]2c3cc(OCc4ccccc4)c(OCc4ccccc4)cc3CCN12 .
# output 5.12

# input If you can, please state the reported pIC50 value of Cc1cc(C)cc(COc2cc3c(cc2OCc2cc(C)cc(C)c2)[C@@H]2C[C@@H](O)C[C@@H](C)N2CC3)c1 (racemic) .
# output 6.14

# input If you can, please state the reported pIC50 value of C[C@@H]1C[C@@H](O)C[C@H]2c3cc(OCc4ccc(C(C)(C)C)cc4)c(OCc4ccc(C(C)(C)C)cc4)cc3CCN12 .
# output 5.42

# input If you can, please state the reported pIC50 value of C[C@@H]1C[C@H](O)C[C@H]2c3cc(OCc4cccc(F)c4)c(OCc4cccc(F)c4)cc3CCN12 .
# output 5.87

###

# System: MDA-MB-231
# Assay Protocol: Cytotoxicity against human MDA-MB-231 cells assessed as cell growth inhibition after 24 hrs by MTT assay
# Type: functional, cell-based
# Test Parameters: MDA-MB-231, 24 h
pIC50: −log10 of the molar value.
Give pIC50 for every item shown.

# input If you can, please state the reported pIC50 value of C[C@@H]1CC(=O)C[C@H]2c3cc(OCc4ccc(Br)cc4)c(OCc4ccc(Br)cc4)cc3CCN12 (relative stereo) .
# output < 4.70

# input If you can, please state the reported pIC50 value of C[C@@H]1CC(=O)C[C@H]2c3cc(OCc4cc(F)cc(F)c4)c(OCc4cc(F)cc(F)c4)cc3CCN12 (relative stereo) .
# output < 4.70

# input If you can, please state the reported pIC50 value of C[C@@H]1CC(=O)C[C@H]2c3cc(OCc4cccc(F)c4)c(OCc4cccc(F)c4)cc3CCN12 .
# output 5.89

# input If you can, please state the reported pIC50 value of Cc1cc(C)cc(COc2cc3c(cc2OCc2cc(C)cc(C)c2)[C@@H]2C[C@H](O)C[C@@H](C)N2CC3)c1 (racemic) .
# output 6.09

# input If you can, please state the reported pIC50 value of O[C@@H]1CCN2CCc3cc(OCc4ccccc4)c(OCc4ccccc4)cc3[C@@H]2C1 (relative stereo) .
# output < 4.70

# input If you can, please state the reported pIC50 value of O=C1C[C@@H](c2ccccc2)N2CCc3cc(OCc4ccccc4)ccc3[C@@H]2C1 (relative stereo) .
# output < 4.70

###

Give IC50 for every item shown.
# Tested on: DU-145
# Assay Protocol: Cytotoxicity against human DU145 cells assessed as cell growth inhibition after 24 hrs by MTT assay
# Type: functional, cell-based
# Test Parameters: DU-145, 24 h

# input If you can, please state the reported IC50 value of O=[N+]([O-])c1ccc([C@@H]2C[C@H](O)C[C@H]3c4cc(OCc5ccccc5)c(OCc5ccccc5)cc4CCN23)cc1 .
# output > 20 µM

# input If you can, please state the reported IC50 value of CCCCCCOc1cc2c(cc1OCCCCCC)[C@@H]1CC(=O)C[C@@H](C)N1CC2 (relative stereo) .
# output > 20 µM

# input If you can, please state the reported IC50 value of C[C@@H]1C[C@@](C)(O)C[C@H]2c3cc(OCc4ccc(C(C)(C)C)cc4)c(OCc4ccc(C(C)(C)C)cc4)cc3CCN12 .
# output 1.46 µM

# input If you can, please state the reported IC50 value of O=C1C[C@@H](c2ccc(-c3ccccc3)cc2)N2CCc3cc(OCc4ccccc4)c(OCc4ccccc4)cc3[C@@H]2C1 (relative stereo) .
# output > 20 µM

# input If you can, please state the reported IC50 value of O=C1C[C@@H](c2ccccc2)N2CCc3ccccc3[C@@H]2C1 (relative stereo) .
# output > 20 µM

# input If you can, please state the reported IC50 value of COc1ccc([C@@H]2CC(=O)C[C@H]3c4cc(OCc5ccccc5)c(OCc5ccccc5)cc4CCN23)cc1 (relative stereo) .
# output > 20 µM

# input If you can, please state the reported IC50 value of C[C@@H]1C[C@@](C)(O)C[C@H]2c3cc(OCc4cc(C(F)(F)F)cc(C(F)(F)F)c4)c(OCc4cc(C(F)(F)F)cc(C(F)(F)F)c4)cc3CCN12 .
# output 2.24 µM

# input If you can, please state the reported IC50 value of CCCCCCOc1cc2c(cc1OCCCCCC)[C@@H]1C[C@H](O)C[C@@H](C)N1CC2 .
# output > 20 µM

# input If you can, please state the reported IC50 value of COc1cc([C@@H]2C[C@H](O)C[C@H]3c4cc(OCc5ccccc5)c(OCc5ccccc5)cc4CCN23)cc(OC)c1OC .
# output > 20 µM
